PROTOCOL TEXT: Tmax in mouse at 200 mg/kg, po administered with 40% captisol by LC-ESI-MS/MS analysis
Assay type: ADME, organism-based
EXPERIMENTAL PARAMETERS: in vivo
VALUE TYPE: Tmax (h)

In [3]: df
Out[3]:
                                   compound  reported_measurement
0  C[C@H](O)C(=O)N1CCC(CCn2c(Sc3cc4c(cc3Br)OCO4)nc3c(N)ncnc32)CC1                     1

* * *

PROTOCOL TEXT: Half life in mouse liver microsomes in presence of NADPH
Type: ADME
VALUE TYPE: half-life

In [3]: df
Out[3]:
                                   compound  reported_measurement
0  CS(=O)(=O)O.C[C@H](N)C(=O)O[C@@H](C)C(=O)N1CCC(CCn2c(Sc3cc4c(cc3Br)OCO4)nc3c(N)ncnc32)CC1               < 2 min

* * *

# Lookup of reported Papp keyed by entry
PROTOCOL TEXT: Apparent permeability of the compound at pH 6.2
Format: physicochemical
EXPERIMENTAL PARAMETERS: not told
VALUE TYPE: Papp (×10⁻⁶ cm/s)

                                   compound  reported_measurement
0  CS(=O)(=O)O.C[C@H](N)C(=O)O[C@@H](C)C(=O)N1CCC(CCn2c(Sc3cc4c(cc3Br)OCO4)nc3c(N)ncnc32)CC1                   2.7
1  C[C@H](O)C(=O)N1CCC(CCn2c(Sc3cc4c(cc3Br)OCO4)nc3c(N)ncnc32)CC1                   420

* * *

PROTOCOL TEXT: Cmax in mouse at 200 mg/kg, po administered with 40% captisol by LC-ESI-MS/MS analysis
Type: ADME, organism-based
Set-up: dose 200 mg/kg, route oral
EXPERIMENTAL PARAMETERS: in vivo
VALUE TYPE: Cmax

>>> df
                                   compound  reported_measurement
0  C[C@H](O)C(=O)N1CCC(CCn2c(Sc3cc4c(cc3Br)OCO4)nc3c(N)ncnc32)CC1           24900 ng/mL

* * *

PROTOCOL TEXT: Kinetic solubility of the compound at pH 6.5
Assay type: physicochemical
EXPERIMENTAL PARAMETERS: buffer, read-out: Kinetic_solubility
VALUE TYPE: solubility kinetic (mg/mL)

                                   compound          value_type  value_units  reported_measurement
0  CS(=O)(=O)O.C[C@H](N)C(=O)O[C@@H](C)C(=O)N1CCC(CCn2c(Sc3cc4c(cc3Br)OCO4)nc3c(N)ncnc32)CC1  solubility kinetic        mg/mL                 0.536
1  C[C@H](O)C(=O)N1CCC(CCn2c(Sc3cc4c(cc3Br)OCO4)nc3c(N)ncnc32)CC1  solubility kinetic        mg/mL                0.0102

* * *

PROTOCOL TEXT: Toxicity in po dosed nu+/- mouse
Type: organism-based
EXPERIMENTAL PARAMETERS: in vivo
VALUE TYPE: MTD

>>> df
                                   compound  reported_measurement
0  C[C@H](N)C(=O)O[C@@H](C)C(=O)N1CCC(CCn2c(Sc3cc4c(cc3Br)OCO4)nc3c(N)ncnc32)CC1.Cl.Cl             252 mg/kg

* * *

PROTOCOL TEXT: Oral bioavailability in mouse at 200 mg/kg administered with 2% CMC by LC-ESI-MS/MS analysis
Assay type: ADME, organism-based
EXPERIMENTAL PARAMETERS: in vivo
VALUE TYPE: bioavailability (%)

In [3]: df
Out[3]:
                                   compound  reported_measurement
0  C[C@H](O)C(=O)N1CCC(CCn2c(Sc3cc4c(cc3Br)OCO4)nc3c(N)ncnc32)CC1                    21

* * *

PROTOCOL TEXT: Half life in human plasma
Assay type: ADME, cell-free
VALUE TYPE: half-life (h)

>>> print(df.to_string())
                                   compound  value_type  value_units  reported_measurement
0  CS(=O)(=O)O.C[C@H](N)C(=O)O[C@@H](C)C(=O)N1CCC(CCn2c(Sc3cc4c(cc3Br)OCO4)nc3c(N)ncnc32)CC1   half-life            h                  2.48

* * *

PROTOCOL TEXT: Oral bioavailability in mouse at 200 mg/kg administered with 40% captisol by LC-ESI-MS/MS analysis
Format: ADME, organism-based
EXPERIMENTAL PARAMETERS: in vivo
VALUE TYPE: bioavailability (%)

In [3]: df
Out[3]:
                                   compound  reported_measurement
0  C[C@H](O)C(=O)N1CCC(CCn2c(Sc3cc4c(cc3Br)OCO4)nc3c(N)ncnc32)CC1                    67

* * *

PROTOCOL TEXT: Half life in phosphate buffer at pH 7.4
Type: physicochemical
VALUE TYPE: half-life (h)

                                   compound  value_units  reported_measurement
0  CS(=O)(=O)O.C[C@H](N)C(=O)O[C@@H](C)C(=O)N1CCC(CCn2c(Sc3cc4c(cc3Br)OCO4)nc3c(N)ncnc32)CC1            h                  2.42

* * *

PROTOCOL TEXT: Half life in simulated gastric fluid at pH 1.2 in presence of pepsin
Type: ADME
EXPERIMENTAL PARAMETERS: simulated gastric fluid with pepsin
VALUE TYPE: half-life

>>> print(df.to_string())
                                   compound  value_type  reported_measurement
0  CS(=O)(=O)O.C[C@H](N)C(=O)O[C@@H](C)C(=O)N1CCC(CCn2c(Sc3cc4c(cc3Br)OCO4)nc3c(N)ncnc32)CC1   half-life                 > 4 h

* * *

PROTOCOL TEXT: Half life in human liver microsomes in presence of NADPH
Format: ADME
VALUE TYPE: half-life

                                   compound  reported_measurement
0  CS(=O)(=O)O.C[C@H](N)C(=O)O[C@@H](C)C(=O)N1CCC(CCn2c(Sc3cc4c(cc3Br)OCO4)nc3c(N)ncnc32)CC1                 2 min

* * *

PROTOCOL TEXT: AUC in mouse at 200 mg/kg, po administered with 2% CMC by LC-ESI-MS/MS analysis
Type: ADME, organism-based
EXPERIMENTAL PARAMETERS: in vivo
VALUE TYPE: AUC

>>> df
                                   compound  reported_measurement
0  C[C@H](O)C(=O)N1CCC(CCn2c(Sc3cc4c(cc3Br)OCO4)nc3c(N)ncnc32)CC1         35100 ng·h/mL

* * *

PROTOCOL TEXT: Aqueous solubility of the compound in simulated intestinal fluid at pH 6.8
Assay type: physicochemical
VALUE TYPE: solubility

In [3]: df
Out[3]:
                                   compound  value_type  reported_measurement
0  C[C@H](O)C(=O)N1CCC(CCn2c(Sc3cc4c(cc3Br)OCO4)nc3c(N)ncnc32)CC1  solubility             7.5 µg/mL

* * *

PROTOCOL TEXT: Half life in mouse liver microsomes in absence of NADPH
Format: ADME
VALUE TYPE: half-life

>>> df
                                   compound  reported_measurement
0  CS(=O)(=O)O.C[C@H](N)C(=O)O[C@@H](C)C(=O)N1CCC(CCn2c(Sc3cc4c(cc3Br)OCO4)nc3c(N)ncnc32)CC1               < 2 min

* * *

PROTOCOL TEXT: AUC in mouse at 200 mg/kg, po administered with 40% captisol by LC-ESI-MS/MS analysis
Format: ADME, organism-based
EXPERIMENTAL PARAMETERS: in vivo
VALUE TYPE: AUC (µg·h/mL)

In [3]: df
Out[3]:
                                   compound  reported_measurement
0  C[C@H](O)C(=O)N1CCC(CCn2c(Sc3cc4c(cc3Br)OCO4)nc3c(N)ncnc32)CC1                   113

Data origin: ChEMBL document CHEMBL3632515
